Molecular target: C-Raf kinase (SEQ. ID NO: 3) (Homo sapiens (Human), UniProt P04049, Y340D/Y341D)
Sequence (P04049 307-648 Y340D/Y341D): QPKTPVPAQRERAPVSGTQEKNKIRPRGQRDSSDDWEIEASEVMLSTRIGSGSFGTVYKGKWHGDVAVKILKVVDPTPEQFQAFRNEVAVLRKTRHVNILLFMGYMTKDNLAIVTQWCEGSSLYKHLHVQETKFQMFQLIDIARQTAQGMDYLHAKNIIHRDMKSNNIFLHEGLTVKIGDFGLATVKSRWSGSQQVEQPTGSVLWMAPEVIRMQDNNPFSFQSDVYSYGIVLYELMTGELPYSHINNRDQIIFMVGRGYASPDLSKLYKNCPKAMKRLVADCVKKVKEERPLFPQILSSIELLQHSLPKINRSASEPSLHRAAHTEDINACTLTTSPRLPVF
Experiment: Biochemical Assay for C-Raf (2)
Details: Table J, biochemical assay (2); read-out: CRAF (2)
readout: IC50

Prompt line: Request the reported IC50 associated with `Cc1ccc(NC(=O)c2ccnc(C(C)(C)F)c2)cc1-c1ccnc(-c2ccnc(C(N)=O)c2)c1`
Response line: ≤ 100 nM

Prompt line: Request the reported IC50 associated with `CNC(=O)c1cc(-c2cc(-c3cc(NC(=O)c4cnnc(C(C)(C)F)c4)ccc3C)ccn2)ccn1`
Response line: ≤ 100 nM

Prompt line: Request the reported IC50 associated with `Cc1ccc(NC(=O)c2ccc(C(F)(F)F)cc2)cc1-c1ccnc(-c2ccnc(NC(=O)C3CC3)c2)c1`
Response line: ≤ 100 nM

Prompt line: Request the reported IC50 associated with `CNC(=O)c1cc(-c2cc(-c3cc(NC(=O)c4ccnc(C(C)(C)F)n4)ccc3C)ccn2)ccn1`
Response line: ≤ 100 nM

Prompt line: Request the reported IC50 associated with `CNC(=O)c1cc(-c2cc(-c3cc(NC(=O)c4ccnc(C(C)(C)F)c4)ccc3C(F)(F)F)ccn2)ccn1`
Response line: 1000 to 10000 nM

Prompt line: Request the reported IC50 associated with `[2H]C([2H])([2H])NC(=O)c1cc(-c2cc(-c3cc(NC(=O)c4ccnc(C5(F)CC5)c4)ccc3C)cc(C)n2)ccn1`
Response line: 100 to 500 nM

Prompt line: Request the reported IC50 associated with `Cc1ccc(NC(=O)c2ccnc(C(C)(C)F)c2)cc1-c1ccnc(-c2ccnc(NC(=O)C3CC3)c2)c1`
Response line: ≤ 100 nM

Prompt line: Request the reported IC50 associated with `CNC(=O)c1cc(-c2cc(-c3cc(F)cc(NC(=O)c4ccnc(C(C)(C)F)c4)c3F)ccn2)ccn1`
Response line: 1000 to 10000 nM

Prompt line: Request the reported IC50 associated with `Cc1ncc(NC(=O)c2ccnc(C(C)C)c2)cc1-c1ccnc(-c2ccnc(NC(=O)C3CC3)c2)c1`
Response line: ≤ 100 nM

Prompt line: Request the reported IC50 associated with `CNC(=O)c1cc(-c2cc(-c3cc(NC(=O)c4cnnc(C(F)(F)F)c4)ccc3C)ccn2)ccn1`
Response line: ≤ 100 nM

As a next step, examine the compound that follows.
Prompt line: Request the reported IC50 associated with `Cc1ccc(NC(=O)c2ccnc(C(C)(C)F)c2)cc1-c1ccnc(-c2ccnc(C(=O)NCCN(C)C)c2)c1`
Response line: ≤ 100 nM

---

Some compounds, each annotated with its measured pIC50.
Target: A-Raf kinase (SEQ. ID No: 1) (Homo sapiens (Human), UniProt P10398, Y301D/Y302D)
Sequence (P10398 other isoform, or with tags, fused parts or gaps Y301D (already in the parent)/Y302D (already in the parent)): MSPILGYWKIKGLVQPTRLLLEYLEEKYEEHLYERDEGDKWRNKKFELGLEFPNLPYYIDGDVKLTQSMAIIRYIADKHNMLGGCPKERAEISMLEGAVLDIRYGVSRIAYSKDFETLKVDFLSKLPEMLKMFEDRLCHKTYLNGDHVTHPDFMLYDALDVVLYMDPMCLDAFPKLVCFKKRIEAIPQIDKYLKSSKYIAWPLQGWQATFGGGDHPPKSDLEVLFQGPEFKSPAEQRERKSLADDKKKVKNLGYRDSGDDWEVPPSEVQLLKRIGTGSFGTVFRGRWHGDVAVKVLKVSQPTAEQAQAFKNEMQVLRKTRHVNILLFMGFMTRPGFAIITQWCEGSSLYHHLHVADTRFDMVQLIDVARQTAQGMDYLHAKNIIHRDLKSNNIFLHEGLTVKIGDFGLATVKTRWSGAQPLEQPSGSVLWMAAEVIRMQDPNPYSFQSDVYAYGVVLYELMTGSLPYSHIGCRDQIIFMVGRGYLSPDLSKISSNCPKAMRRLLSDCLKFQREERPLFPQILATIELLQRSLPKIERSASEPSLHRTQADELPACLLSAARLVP
Test: Biochemical Assay for A-Raf (1)
Conditions: Table J, assay version (1); read-out: ARAF (1) IC50
pIC50: −log10 of the molar value.

Examples with their reported pIC50 follow.
Prompt line: Missing value: pIC50, A-Raf kinase (SEQ. ID No: 1) (Homo sapiens (Human), UniProt P10398, Y301D/Y302D), entry `Cc1ccc(NC(=O)c2ccnc(C(C)(C)F)c2)cc1-c1cc(-c2ccnc(NC(=O)C3CC3)c2)cnn1` . Fill in?
Response line: 6.00 to 6.30

Prompt line: Missing value: pIC50, A-Raf kinase (SEQ. ID No: 1) (Homo sapiens (Human), UniProt P10398, Y301D/Y302D), entry `COCCNc1cc(-c2nccc(-c3cc(NC(=O)c4ccnc(C(C)(C)C#N)c4)ccc3C)n2)ccn1` . Fill in?
Response line: 5.00 to 6.00

Prompt line: Missing value: pIC50, A-Raf kinase (SEQ. ID No: 1) (Homo sapiens (Human), UniProt P10398, Y301D/Y302D), entry Cc1ncc(NC(=O)C2CCOC2)cc1-c1ccnc(-c2ccnc(NC(=O)C3CC3)c2)n1 (stereo not shown) . Fill in?
Response line: 5.00 to 6.00

As a next step, examine the compound that follows.
Prompt line: Missing value: pIC50, A-Raf kinase (SEQ. ID No: 1) (Homo sapiens (Human), UniProt P10398, Y301D/Y302D), entry `Cc1ccc(NC(=O)c2ccnc(S(C)(=O)=O)c2)cc1-c1cc(-c2ccnc(NC(=O)C3CC3)c2)cnn1` . Fill in?
Response line: 5.00 to 6.00

Just for reference, patent US12319655B2 is where these values come from.
